src = patent US20240360228A1

- System Under Test: T1, human CCR8 (human, UniProt P51685 1-355)
- T1 construct: Native CCR8 on human PBMC (CCR8+ CD3+ or CCR8+ CD4+ lymphocytes); also called chemokine (C-C motif) receptor 8
- T1 sequence (P51685 whole entry): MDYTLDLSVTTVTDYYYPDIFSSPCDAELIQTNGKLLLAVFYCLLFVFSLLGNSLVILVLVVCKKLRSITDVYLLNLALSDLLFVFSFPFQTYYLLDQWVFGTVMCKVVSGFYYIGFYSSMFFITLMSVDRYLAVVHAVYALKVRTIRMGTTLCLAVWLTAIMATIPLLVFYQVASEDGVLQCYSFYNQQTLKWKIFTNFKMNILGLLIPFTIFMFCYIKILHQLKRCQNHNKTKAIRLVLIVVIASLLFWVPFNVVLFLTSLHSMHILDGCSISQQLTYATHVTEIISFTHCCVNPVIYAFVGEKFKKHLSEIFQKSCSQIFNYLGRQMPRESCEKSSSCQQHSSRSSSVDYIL
- Experiment Notes: flow blocking, PBMC CCR8+CD3+; competitor PE-AB5
- Protocol: For blocking studies, 100 μL of the cell suspension were incubated with 10 μg purified isotype control, AB1, AB2, AB3, AB4, AB5, AB8, AB9, AB10, AB11, AB12, AB13, AB14, AB15, and Commercial ABI antibodies, or isotype control, as blocking agents. […]
Value Type: % Blocking (%)
Please reply with the bare figure in % and do not write the unit itself.

Some solved cases for reference:
binder="AB7 (antibody, V domains shown, Hybridoma monoclonal; also called antibody 7; clone 7) VH: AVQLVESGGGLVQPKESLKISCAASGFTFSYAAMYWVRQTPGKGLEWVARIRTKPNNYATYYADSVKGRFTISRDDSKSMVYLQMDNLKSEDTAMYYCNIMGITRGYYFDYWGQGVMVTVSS VL: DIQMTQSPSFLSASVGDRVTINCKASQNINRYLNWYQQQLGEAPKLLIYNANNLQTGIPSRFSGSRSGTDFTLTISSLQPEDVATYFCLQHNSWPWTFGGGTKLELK" quantity_unit=% reported=-6.64
binder="AB8 (antibody, V domains shown, Hybridoma monoclonal; also called antibody 8; clone 8) VH: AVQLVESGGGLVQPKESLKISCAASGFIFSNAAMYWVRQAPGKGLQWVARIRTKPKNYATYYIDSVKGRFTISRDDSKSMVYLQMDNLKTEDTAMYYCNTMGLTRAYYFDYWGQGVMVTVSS VL: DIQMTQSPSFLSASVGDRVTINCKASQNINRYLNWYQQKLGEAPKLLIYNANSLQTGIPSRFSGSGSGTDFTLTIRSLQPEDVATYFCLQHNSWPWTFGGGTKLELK" quantity_unit=% reported=-11.8

In the following, a different binder is considered.
// field: % Blocking; key: AB5 (antibody, V domains shown, Hybridoma monoclonal; Same VH/VL entries as AB6; also called antibody 5; clone 5) VH: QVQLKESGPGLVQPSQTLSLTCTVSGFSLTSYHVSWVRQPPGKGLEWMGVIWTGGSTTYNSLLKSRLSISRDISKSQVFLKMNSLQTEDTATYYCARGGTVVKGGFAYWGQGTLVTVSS VL: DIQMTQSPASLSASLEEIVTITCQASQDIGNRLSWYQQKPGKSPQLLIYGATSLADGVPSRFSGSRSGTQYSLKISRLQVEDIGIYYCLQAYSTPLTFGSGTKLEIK ; value = 14.8
